measurement notes: chemical genetic growth profiling, strain panel (AID 1159580);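 further: tested at 20 µM; growth read once vehicle control cultures reached saturation at 30 °C; 1 = growth at the plate median or of vehicle wells; lower values mean less growth of the strain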
condition summary: S. cerevisiae deletion strains, growth OD, locus YMR078C, strain ctf18
Hit rate of the full screen: of about 5,500 compounds, about 2,000 (36%) were called active. Another 18% or so got no clear call; they are omitted. No stated cut-off is given here; in the data, active means normalized growth mostly below about 0.91 (no sharp cut-off); inconclusive means no clear call, values can overlap the other calls; inactive means mostly above about 0.92. The list shows a part of the results.
Returns: one label drawn from class 1 for active, class 0 for inactive

Examples with answers:
Exercise: Dear all, I need the recorded test outcome for NCC(CC(=O)O)c1ccc(Cl)cc1 (stereo not given) , thank you.
Solution: class 0

Exercise: Fill in: this test's call for `O=c1[nH]cnc2[nH]ncc12` is ___
Solution: class 0

Exercise: Dear all, I need the recorded test outcome for NC(N)=NCCCC(NC(=O)C(N)Cc1ccc(O)cc1)C(=O)O (stereo not given) , thank you.
Solution: class 0

Exercise: For CC(CN(C)C)CN1c2ccccc2Sc2ccccc21 (stereo not given) , what call appears in the results of this test?
Solution: class 0

Exercise: What is the recorded call for this compound in the test? COC(=O)CCC(C)C1CCC2C3CC[C@@H]4C[C@H](O)CC[C@]4(C)C3C[C@H](O)[C@]12C (stereo not given in full)
Solution: class 0

More entries:
Exercise: Hi, do you know how `COc1c(Cl)ccc(Cl)c1C(=O)O` came out in this test?
Solution: class 0

Exercise: GET /call?item= `CCCC(CCC)C(=O)O` returns the recorded outcome of this test.
Solution: class 0

Exercise: Called result for Cc1cc(C)cc(OCC2CNC(=O)O2)c1 (stereo not given)
Solution: class 0

Exercise: Which result was noted for this compound in the test: NS(=O)(=O)c1cc2c(cc1Cl)NC(C1CC3C=CC1C3)NS2(=O)=O (stereo not given)
Solution: class 0

Exercise: Answer briefly: the call reported for `O=C(O)CCCOc1ccc(Cl)cc1Cl` in this assay.
Solution: class 0
